System: corn
PROCEDURE DETAILS: Test B preemergence/postemergence greenhouse plant response rating 0 to 10
Assay type: in vivo, Zea mays
COND: POSTEMERGENCE, Rate 50 g/ha; 0 to 10 scale
Measured Plant response rating, Corn, listed per entry for reference.
QUANTITY KIND: Plant response rating, Corn

>>> df
                                   compound  measured
0  Oc1cc(-c2nn3c(c2Br)CCCC3)c(F)cc1Cl [Compound 81]         2
1  C#CC(C)N1C(=O)COc2cc(F)c(-c3nn4c(c3Cl)CCCC4)cc21 (centres unmarked) [Compound 50]         4
2  Fc1cc(Cl)c(OCCCl)cc1-c1nn2c(c1Cl)CCCC2 [Compound 49]         3
3  CCC(=O)Oc1cc(-c2nn3c(c2Cl)CCCC3)c(F)cc1Cl [Compound 47]         4
4  CCOC(=O)c1cc(-c2nn3c(c2Cl)CCCC3)c(F)cc1Cl [Compound 78]         7

----------
Test system: pitted morningglory
PROCEDURE DETAILS: Test G preemergence/postemergence greenhouse plant response rating 0 to 100
Format: in vivo, Ipomoea lacunosa
COND: PREEMERGENCE, Rate 250 g/ha, 0 to 100 scale
QUANTITY KIND: Plant response rating, Pit Morninglory

In [3]: df
Out[3]:
                                   molecule                           quantity_kind  measured
0  C=CCN1C(=O)COc2cc(F)c(-c3nn4c(c3Cl)CCCC4)cc21  Plant response rating, Pit Morninglory         0
1  CCS(=O)(=O)Oc1cc(-c2nn3c(c2Cl)CCCC3)c(F)cc1Cl  Plant response rating, Pit Morninglory         0
2  CCCN1C(=O)COc2cc(F)c(-c3nn4c(c3Cl)CCCC4)cc21  Plant response rating, Pit Morninglory         0
3  CC(C)N1C(=O)COc2cc(F)c(-c3nn4c(c3Cl)CCCC4)cc21  Plant response rating, Pit Morninglory         0
4    C#CCOc1cc(-c2nn3c(c2Br)CCCC3)c(F)cc1Cl  Plant response rating, Pit Morninglory        20
5  COC(=O)C(C)Oc1cc(-c2nn3c(c2Cl)CCCC3)c(F)cc1Cl (stereo not drawn)  Plant response rating, Pit Morninglory         0

----------
Measured Plant response rating (0 to 100), Barnyardgrass 2, listed per entry for reference.
Test system: barnyardgrass
PROCEDURE DETAILS: Test C flood test plant response rating 0 to 100
Type: in vivo, Echinochloa crus-galli
COND: Rate 16 g/ha; under POSTEMERGENCE head (flood test species)
QUANTITY KIND: Plant response rating (0 to 100), Barnyardgrass 2

>>> df
                                   compound  measured
0  Fc1cc(Cl)c(OCCCl)cc1-c1nn2c(c1Cl)CCCC2 [Compound 49]       100
1  COCN1C(=O)COc2cc(F)c(-c3nn4c(c3Cl)CCCC4)cc21 [Compound 55]        90
2  COCN1C(=O)COc2cc(F)c(-c3nn4c(c3Br)CCCC4)cc21 [Compound 67]        90
3  C#CC(C)Oc1cc(-c2nn3c(c2Br)CCCC3)c(F)cc1Cl (stereo not shown) [Compound 66]        90
